# TGT: 5HT3 receptor (Cavia porcellus)
# Construct: Guinea pig ileum fragments; from tissue; host or cells: guinea pig ileum fragments
# Sequence (O70212 20-490): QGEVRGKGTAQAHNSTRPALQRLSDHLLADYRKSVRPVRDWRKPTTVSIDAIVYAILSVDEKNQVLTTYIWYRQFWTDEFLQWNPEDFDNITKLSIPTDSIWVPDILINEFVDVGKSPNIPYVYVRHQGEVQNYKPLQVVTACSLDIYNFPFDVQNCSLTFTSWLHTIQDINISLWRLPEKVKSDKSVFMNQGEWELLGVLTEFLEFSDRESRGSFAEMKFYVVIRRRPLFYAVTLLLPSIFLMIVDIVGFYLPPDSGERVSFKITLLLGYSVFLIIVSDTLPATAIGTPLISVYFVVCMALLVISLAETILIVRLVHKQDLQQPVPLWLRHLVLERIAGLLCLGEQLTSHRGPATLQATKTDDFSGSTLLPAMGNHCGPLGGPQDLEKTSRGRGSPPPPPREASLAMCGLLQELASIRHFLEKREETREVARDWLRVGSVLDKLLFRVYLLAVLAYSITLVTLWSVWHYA
# METHOD SUMMARY: Inhibition of 2-methyl-serotonin induced contraction of guinea pig ileum
# SETUP CONDITIONS: guinea pig ileum, contraction by 2-methyl-serotonin 10 μmol/l, incubation 15 minutes; read-out: 2-me-5HT g.p. ileum CI50
Items are presented alongside their recorded IC50.
Report the value in nM with no unit label.

# example entries with known answers
Cc1ccc2c(c1)nc(N1CCNCC1)n2Cc1ccccc1 : 28.3
Clc1cc2nc(N3CCNCC3)n(Cc3ccccc3)c2cc1Cl : 265
Fc1ccc2c(c1)nc(N1CCNCC1)n2Cc1ccccc1 : 1.65
Oc1ccc2c(c1)nc(N1CCNCC1)n2Cc1ccccc1 : 116

Now consider a different compound.
# compound O=[N+]([O-])c1ccc2c(c1)nc(N1CCNCC1)n2Cc1ccccc1 ; its IC50 = 10.5
